Source listed as PubChem BioAssay (NCI).

# Tested on: MDA-MB-468 breast
# experiment_summary: NCI-60 one-dose screen, 48 h (100 = growth as untreated, 0 = no growth, -100 = all killed)
# test_settings: 10 µM unless noted
Compounds without any hit were thinned out: in the full panel of roughly 83,000, 20% have a hit.
Would you mind labelling by growth? At or over 60% is YES, under is NO.

compound: Cc1c(C(C)(C)C)cc(C(C)(C)C)c2c1CN(C)CO2
group: YES
//
compound: O=C(Nc1cc(Nc2ncccc2-c2ncnc3nc[nH]c23)ccc1F)c1cc(C(F)(F)F)cc(C(F)(F)F)c1
group: NO
//
compound: COc1ccc(/C=N/NC(=O)c2cccc3cc[nH]c23)cc1O
group: NO
//
compound: CC(CO)(CO)C(=O)O
group: YES
//
compound: Cc1ccc2[nH]c(=O)cc(-n3nncc3Cn3c4ccccc4c4ccccc43)c2c1
group: YES
//
compound: COC(c1ccc2ccccc2c1)C(C)C(F)F (stereo unspecified)
group: YES
//
compound: CCN1CCN(C(=O)[C@@]2(C)CC[C@]3(C)CC[C@]4(C)C(=CC(=O)[C@@H]5[C@@]6(C)CC[C@H](OCCC#N)C(C)(C)[C@@H]6CC[C@]54C)[C@@H]3C2)CC1
group: YES
//
compound: CC(C)CSc1nc(NN)c(C#N)c(-c2ccc(F)cc2)n1
group: YES
//
compound: O=S(=O)(NCCNc1nccc(-c2c(-c3ccc(O)cc3)nc3sccn23)n1)c1cccc2ccccc12
group: YES
//
compound: CCOC(=O)C1=NN(c2ccccc2)C(=O)/C1=C\N1C(=O)CC(=O)NC1=S
group: YES
//
compound: Cc1c2ccccc2c(C)c2c1ccc1ccccc12
group: NO
//
compound: CC1(C)CC[C@]2(C(=O)O)CC[C@]3(C)C(=CCC4[C@@]5(C)C[C@@H](O)[C@@H]6OC(c7cccc([N+](=O)[O-])c7)OC[C@@]6(C)C5CC[C@]43C)C2C1 (stereo partly specified)
group: YES
//
compound: COC(=O)CNc1nc(N(C)O)nc(N(C)O)n1
group: NO
//
compound: COc1ccc(S(=O)(=O)NCCCNc2nccc(-c3c(-c4cccc(N)c4)nc4sccn34)n2)cc1
group: YES
//
compound: Cc1ccc(/C(C#N)=C/c2ccc3c(c2)OCO3)cc1
group: NO
//
compound: COc1ccc(-c2csc(NC(=O)CN3CCN(CCO)CC3)n2)cc1NS(=O)(=O)c1cccc2c(N(C)C)cccc12
group: NO
//
compound: Cc1ccnc(NC(c2ccccc2)c2ccc3cccnc3c2O)c1 (stereo unspecified)
group: NO
//
compound: COc1ccccc1CNCCCN1C(=O)c2ccc3c4c(ccc(c24)C1=O)C(=O)N(CCCNCCCCNCCCCN)C3=O
group: NO
//
compound: O=C1Nc2ccccc2Oc2ccc(S(=O)(=O)CC3CO3)cc21 (stereo unspecified)
group: NO
//
compound: Nc1ccc(S(=O)(=O)Nc2ccsc2-c2nc(-c3ccccc3)no2)cc1
group: NO
//
compound: CN(C)CC(=O)c1ccc2cc(Br)c3ccccc3c2c1
group: YES

* * *

# Test system: CAKI-1 renal
# experiment_summary: NCI-60 one-dose screen, 48 h (100 = growth as untreated, 0 = no growth, -100 = all killed)
# test_settings: 10 µM
The panel holds about 83,000 compounds, 20% with a hit somewhere; the sample as a whole holds those more often.
readout: growth (%)

compound: CC1(C)CC[C@]2(C(=O)O)CC[C@]3(C)C(=CCC4[C@@]5(C)C[C@@H](O)[C@@H]6OC(c7cccc(F)c7)OC[C@@]6(C)C5CC[C@]43C)C2C1 (some centres undefined)
target: CAKI-1 renal
obs_value: 49
--
compound: COc1ccc(OC)c(-n2cc(C#N)c(N)c2C(=O)c2ccc(Cl)cc2Cl)c1
target: CAKI-1 renal
obs_value: 36.9
--
compound: C#C[C@]1(O)CC[C@H]2[C@@H]3CC=C4c5sc(Nc6ccc(N(C)C)cc6)nc5CC[C@]4(C)[C@H]3CC[C@@]21C
target: CAKI-1 renal
obs_value: 2.6
--
compound: COc1ccc(C2c3sc4ccc(C)cc4c3Oc3nc[nH]c(=O)c32)cc1 (centres undefined)
target: CAKI-1 renal
obs_value: 60

* * *

# System: MDA-MB-468 breast
# experiment_summary: NCI-60 one-dose screen, 48 h (100 = growth as untreated, 0 = no growth, -100 = all killed)
# test_settings: 100 µM
The panel holds about 83,000 compounds, 20% with a hit somewhere; the sample as a whole holds those more often.
readout: growth (%)

molecule: CCN(Cc1ccccc1)c1ccc(/C=C2\COc3ccccc3C2=O)cc1
unit: %
obs_value: 7.2
//
molecule: COc1ccc(Cl)cc1C(=O)NCCc1ccc(S(=O)(=O)NC(=O)NC2CCCCC2)cc1
unit: %
obs_value: 63.2
//
molecule: CC(=O)/C=C/c1ccc(N(C)Cc2ccc(C(C)(C)C)cc2)cc1
unit: %
obs_value: -71.8
//
molecule: CCc1ccccc1-n1c(N)c(C#N)c(-c2ccc(OC)c(OC)c2)c(C#N)c1=O
unit: %
obs_value: 47.4
//
molecule: Cc1[nH]c(-c2nc3ccccc3[nH]2)c(C)c1C(=O)NC(C)C1CCCCC1 (stereo not drawn)
unit: %
obs_value: -87.1
//
molecule: O=C(Nc1cccc(Br)c1)Oc1cccc2cccnc12
unit: %
obs_value: -8.71
//
molecule: COc1ccc(-c2cscc2N)cc1
unit: %
obs_value: 38.7
//
molecule: O=C(O)c1sccc1O
unit: %
obs_value: 10.8

* * *

# Tested on: MDA-MB-468 breast
# experiment_summary: NCI-60 one-dose screen, 48 h
# test_settings: 10 µM unless noted
About 83,000 compounds went through this panel and 20% of them were active in at least one assay; those are over-represented in the sample as a whole. Calls of active or inactive are those of the source. How the source made its calls: active means growth percent below 10; inactive means the rest.
Outcomes: active, inactive

substance_smiles: Cc1ccc(S(=O)(=O)n2cc(-c3csc(-c4cn(C)c5ncccc45)n3)c3ccccc32)cc1
target: MDA-MB-468 breast
group: inactive
--
substance_smiles: O=C(/C=C/c1cccc(Br)c1)c1ccccc1
target: MDA-MB-468 breast
group: inactive
--
substance_smiles: Cc1cc(C)c(O)c(CNCCCNCc2cc(C)cc(C)c2O)c1
target: MDA-MB-468 breast
group: active
--
substance_smiles: CCN1C2CCC1/C(=C\c1ccccc1)C(=O)/C2=C/c1ccccc1
target: MDA-MB-468 breast
group: inactive
--
substance_smiles: C#C[C@]1(O)CC[C@H]2[C@@H]3CC=C4c5sc(-c6ccc7c(c6)OCO7)nc5CC[C@]4(C)[C@H]3CC[C@@]21C
target: MDA-MB-468 breast
group: inactive

* * *

# Tested on: MDA-MB-468 breast
# experiment_summary: NCI-60 one-dose screen, 48 h
# test_settings: 10 µM unless noted
This is part of a sample that, as a whole, favours compounds with a hit. Of some 83,000 tested, about 20% had one in any assay. The source made the active and inactive calls. Rule for the calls: active = growth percent below 10; inactive = the rest.
Outcomes: 1.0 = active, 0.0 = inactive

molecule: O=[N+]([O-])c1ccc(-c2nnc(SCc3ccc(O)c4ncccc34)o2)cc1
group: 0.0

molecule: O[C@@H]1CO[C@H]2[C@@H]1OC[C@@H]2O
group: 0.0

molecule: CC1(C)CC(=O)c2c(nn(-c3ccc(Br)cc3)c2-c2cn(-c3ccccc3)nc2-c2cccnc2)C1
group: 0.0

molecule: COc1ccc(C(=O)c2cc3c(N)c(C(=O)Nc4cccc(Cl)c4C)sc3nc2C)cc1
group: 1.0

molecule: O=C(/C=C/C12c3ccccc3C(c3ccccc31)C1C(=O)NC(=O)C12)c1ccc(Br)cc1 (stereo not given)
group: 0.0

* * *

# System: MDA-MB-468 breast
# experiment_summary: NCI-60 one-dose screen, 48 h (100 = growth as untreated, 0 = no growth, -100 = all killed)
# test_settings: 10 µM unless noted
About 83,000 compounds went through this panel and 20% of them were active in at least one assay; those are over-represented in the sample as a whole.
Parameter: growth. Scope: all listed entries.

molecule: CN(C)CCn1c(=O)c2c3cc4c(cc3n(CCN(C)C)c2c2ccc(Cl)cc21)OCO4
unit: %
growth: 41
//
molecule: NC(N)=Nc1ccc(Oc2ccc(Nc3ccc(Cl)c(C(F)(F)F)c3)cc2)cc1
unit: %
growth: 22.2
//
molecule: CC(C)C(C#N)(C(C)C)C(C)C
unit: %
growth: 109
//
molecule: COC1C(O)CC(OC2CC(OC3CC(O[C@@H]4C(=O)c5c(cc6cc(OC7CC(OC8CC(O)C(O)C(C)O8)C(O)C(C)O7)c(C)c(O)c6c5O)CC4[C@H](OC)[C@@H](O)C(C)=O)OC(C)C3O)OC(C)C2O)OC1C (stereo not given in full)
unit: %
growth: -40.1
//
molecule: COc1ccc(-c2nc(-c3nc4ccc(OC)cc4[nH]3)c3ccccn23)cc1
unit: %
growth: 72.2
//
molecule: COc1ccc(-c2csc(NC(=O)c3cc(OC)c(OC)c(OC)c3)n2)cc1
unit: %
growth: 86.8
//
molecule: Nc1cccc2c1C(=O)c1cccc(NC(=O)c3ccccc3)c1C2=O
unit: %
growth: 10.6
//
molecule: O=C(CCCCCCNC(=O)C(O)(O)C(F)(F)F)Nc1ncc(-c2ccc(Br)cc2)s1
unit: %
growth: -35.8
//
molecule: CCN(CCC#N)c1ccccc1
unit: %
growth: 118
//
molecule: O=C(c1ccccc1)C(Br)C(Br)c1ccccc1 (stereo not given)
unit: %
growth: 72.3
//
molecule: C=C1C(=O)O[C@H]2[C@H]1CC/C(Cn1cc(-c3ccc(N)cc3)nn1)=C\CC[C@@]1(C)O[C@@H]21
unit: %
growth: -44.8
//
molecule: O=C(Nc1cccc(-n2ccc3c(NC(=O)c4ccccc4)nccc32)c1)Nc1cc(C(F)(F)F)cc(C(F)(F)F)c1
unit: %
growth: 7.42
//
molecule: O=c1[nH]c(=O)c2cc(Cl)cc(Cl)c2[nH]1
unit: %
growth: 112
//
molecule: COc1ccc(-c2nn(C(=O)c3cc(OC)c(OC)c(OC)c3)c3cc(N)ccc23)cc1
unit: %
growth: -1.08
//
molecule: CCCCCCCCCCCCCCCC[N+]1(C)CCCC1c1cccnc1 (stereo not given)
unit: %
growth: -15.8
//
molecule: O=C(c1nc2ccccc2[nH]1)C1C(c2ccc(Cl)cc2)C2CC3CCCC[C@H]3N2[C@@]12C(=O)Nc1cc(Cl)ccc12 (stereo not given in full)
unit: %
growth: 12.1
//
molecule: O=C(Cn1cc(CN2C(=O)c3ccccc3S2(=O)=O)nn1)Nc1nc2ccccc2s1
unit: %
growth: 130
//
molecule: CC(=O)O[C@@H]1CCN2C(=O)N(C)c3ccccc3[C@@H]2C1
unit: %
growth: 126
//
molecule: COc1cc(/C=C/C(=O)/C=C/c2ccc(-n3ccnc3)cc2)ccc1O
unit: %
growth: 37.8
//
molecule: CC(=O)CC(=O)SC1=NCCS1
unit: %
growth: 124
